assay method text: qHTS for differential inhibitors of proliferation of Plasmodium falciparum line 3D7 (AID 1876); also: potency is read from the fitted curve at half-maximal effect
condition context: P. falciparum 3D7 proliferation inhibition; series mostly up to 28.7 µM
Results filed as inconclusive are left out. The source made the active and inactive calls. Calls follow the shape of the dose curve; as a rule, active = well fitted curve in the direction sought with a large enough effect; inconclusive = small, poorly fitted or top-dose-only effect, or another doubt; inactive = no such curve, though single readings can be large or run the other way.
endpoint name: Potency

> print(dat)
                                    molecule         obs.value
 1  COc1c2c(nc3ccccc13)OC(C(C)(O)CO)C2 (stereo unspecified)          inactive
 2                     NCCC(=O)NCCc1cnc[nH]1          inactive
 3  Nc1ncnc2c1ncn2[C@@H]1O[C@H](CO)[C@H](O)[C@H]1O          inactive
 4  C[C@H]1CC2[C@@H]3CCC4=CC(=O)C=C[C@]4(C)[C@@]3(Cl)[C@@H](O)C[C@]2(C)[C@@]1(O)C(=O)CO (stereo partly specified)          inactive
 5  COc1cc(=O)n(C)c2c(OCC(O)C(C)(C)O)cccc12 (stereo unspecified)          inactive
 6              N=C(N)SCCc1cccc(CCSC(=N)N)c1  3.16 µM (active)
 7                     NCCNC(=O)c1ccc(Cl)cc1          inactive
 8  COc1cc2c(cc1OC)C(c1ccccc1)CN(C)CC2 (stereo unspecified)  14.1 µM (active)
 9  OC[C@H]1O[C@@H](n2cnc3c(NCCc4ccccc4)ncnc32)[C@H](O)[C@H]1O          inactive
10  NC(=S)NCCCC(N)C(=O)O (stereo unspecified)          inactive
11  Cc1cn([C@H]2C[C@@H](N=[N+]=[N-])[C@@H](CO)O2)c(=O)[nH]c1=O          inactive
